Target: OsWRKY34 (Oryza sativa, UniProt Q0JBA9 1-250)
Sequence (Q0JBA9 entry or part of it): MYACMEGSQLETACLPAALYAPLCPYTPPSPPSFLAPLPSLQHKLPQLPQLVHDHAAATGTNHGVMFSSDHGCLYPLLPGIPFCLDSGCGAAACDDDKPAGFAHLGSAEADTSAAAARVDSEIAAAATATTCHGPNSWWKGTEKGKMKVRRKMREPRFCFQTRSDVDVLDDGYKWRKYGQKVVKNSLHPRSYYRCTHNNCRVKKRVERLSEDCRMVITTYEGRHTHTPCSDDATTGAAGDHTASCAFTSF
Assay method text: protein-binding microarray (RPBM); PBS, 2% BSA, 51.3 ng/ul salmon testes DNA, 50 uM zinc acetate, 200 nM TF, 25 C, 1 h; high values mean tight binding
Settings: protein: recombinant; tags: N-terminal polyhistidine and DsRed monomer fusion (pET32a); label: CyDye5-dUTP incorporated in the synthesized complementary strand; 3' TTTTT single-stranded linker to array surface; dsDNA, one strand shown
Over roughly 68,000 sequences, “fluorescence intensity (a.u.)” has its median near 9,100; the highest 2% begin near 16,000. The full list was thinned out, with the highest values kept by preference.

# Monomer sequence, binding signal
rows = [
    ("TACTCCCTCTGTTTTTTAATAGATGACGCCGTTGACTTTTCGGAGTCACCTAGTGCAG", "17100 fluorescence intensity (a.u.)"),
    ("AATACTACCTCCGTTTTAAAATGTTTGACGCCGTTGATATCGGAGTCACCTAGTGCAG", "8440 fluorescence intensity (a.u.)"),
    ("CCTCCGTTTCTAAATATTTAACGCCATTGACTTTTTAGCACGGAGTCACCTAGTGCAG", "9160 fluorescence intensity (a.u.)"),
    ("GGTTCCAATTCGTCGCCTGATACTCCGATTCGAGTTCTTGCGGAGTCACCTAGTGCAG", "12700 fluorescence intensity (a.u.)"),
    ("CAGGAGGGGTGGGTTGTTGTTCGGTGGTGTGGACCCGTGCCGGAGTCACCTAGTGCAG", "17700 fluorescence intensity (a.u.)"),
    ("GATGCATTTTTGTCTGGGCGTTGTCCTTGTGGAAGCATCTCGGAGTCACCTAGTGCAG", "10000 fluorescence intensity (a.u.)"),
    ("TGTTATATTTGTATTTGTGCTTTGCTTCTTCTAGGCTTTTCGGAGTCACCTAGTGCAG", "8740 fluorescence intensity (a.u.)"),
    ("CTCCCTCCGTTTCTAAATATTTGATACCGTTGACTTTTTACGGAGTCACCTAGTGCAG", "22300 fluorescence intensity (a.u.)"),
    ("GTTTTTCCTCTCTGCTTGTAACGCGTGATGTAAAATTTTCCGGAGTCACCTAGTGCAG", "11000 fluorescence intensity (a.u.)"),
    ("CATTTTTTTAGCTTGTTCTTCCTTGTGTCACAAACATTTCCGGAGTCACCTAGTGCAG", "11300 fluorescence intensity (a.u.)"),
    ("TCCGTCTGTCTATAGCTACTATTAAAGGAGGGGAGGCTCTCGGAGTCACCTAGTGCAG", "8130 fluorescence intensity (a.u.)"),
    ("GGTTATTATATCTACAAAATTCTTGCACACCTCAGCAATGCGGAGTCACCTAGTGCAG", "8090 fluorescence intensity (a.u.)"),
]
